assaySystem: subtype of muscarinic receptors (M1-site) (Rattus norvegicus, UniProt P08482)
Sequence (P08482 whole entry): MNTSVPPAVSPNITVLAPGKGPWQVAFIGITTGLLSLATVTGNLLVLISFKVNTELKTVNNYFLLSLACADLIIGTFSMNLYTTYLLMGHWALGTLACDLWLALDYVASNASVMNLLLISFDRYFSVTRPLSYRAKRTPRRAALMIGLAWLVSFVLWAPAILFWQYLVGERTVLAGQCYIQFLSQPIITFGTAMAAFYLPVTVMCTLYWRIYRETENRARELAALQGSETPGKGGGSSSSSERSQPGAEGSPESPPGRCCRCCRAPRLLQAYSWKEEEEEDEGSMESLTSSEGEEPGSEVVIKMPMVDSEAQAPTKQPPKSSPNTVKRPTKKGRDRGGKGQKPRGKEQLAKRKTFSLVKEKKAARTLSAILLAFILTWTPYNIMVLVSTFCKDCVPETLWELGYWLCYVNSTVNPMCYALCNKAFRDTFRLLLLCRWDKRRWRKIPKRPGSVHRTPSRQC
methodDescription: inhibition of 3H-PRZ (pirenzepine, [N-methyl-3H]) binding to rat cerebral cortex membranes
experimentalSetup: 1.0 nM 3H-Pirenzepine, pH 7.4, 60 min, 20° C, read-out: IC50, 3H-Pz
pIC50: −log10 of the molar value.
endpointLabel: pIC50

{"columns": ["compound", "valueReported"],
 "data": [
  ["CCCCCCSc1nsnc1C1=CCC[N+](C)(C)C1 [Compound 1]", 8.22],
  ["CCCCCCOc1nsnc1C1=CCC[N+](C)(C)C1 [Compound 2]", 8.05],
  ["CCCCSc1nsnc1[C@H]1C[N@@+]2(C)CCC[C@@H]1C2 (relative stereo) [Compound 5]", 8.06]
]}
